- System: OV-56 (Ovarian Carcinoma)
- protocolDetails: Bliss excess, mean over the matrix (fraction); higher = more synergy
Listed here are compounds together with their documented Bliss excess.

compound	Bliss excess
CN(CCO)CC[C@H](CSc1ccccc1)Nc1ccc(S(=O)(=O)NC(=O)c2ccc(N3CCC([C@@H](O)c4ccccc4-c4ccc(Cl)cc4)CC3)cc2)cc1S(=O)(=O)C(F)(F)F [AZD4320] + CCN(CCO)CCCOc1ccc2c(Nc3cc(CC(=O)Nc4cccc(F)c4)[nH]n3)ncnc2c1 [AZD2811] (first compound max 1 µM, 7x7, partner max 1 µM)	-0.0293
COc1nnc2ccc(N3CCC(c4ccc(OCCN5CCN(C)C(=O)[C@H]5C)cc4)CC3)nn12 [AZD5153] + C[C@@H]1COCCN1C2=NC(=NC(=C2)C3(CC3)[S@](=N)(=O)C)C4=C5C=CNC5=NC=C4 [AZD6738] (first compound max 1 µM, 7x7, partner max 10 µM)	0.0824
Cc1c2c(nn1C)CSCc1cc(n(C)n1)CSc1cc(c3ccccc3c1)OCCCc1c(C(=O)O)n(C)c3c-2c(Cl)ccc13 [AZD5991] + C[C@@H](Nc1cc(F)cc(F)c1)c1cc(C(=O)N(C)C)cc2c(=O)cc(N3CCOCC3)oc12 [AZD8186] (first compound max 1 µM, 7x7, partner max 3 µM)	0.017
COc1nnc2ccc(N3CCC(c4ccc(OCCN5CCN(C)C(=O)[C@H]5C)cc4)CC3)nn12 [AZD5153] + C=CCn1c(=O)c2cnc(Nc3ccc(N4CCN(C)CC4)cc3)nc2n1-c1cccc(C(C)(C)O)n1 [AZD1775] (first compound max 1 µM, partner max 1 µM)	-0.0105
CC(=O)c1c(C)c2cnc(Nc3ccc(N4CCNCC4)cn3)nc2n(C2CCCC2)c1=O [Palbociclib] + CN(CC[C@H](CSC1=CC=CC=C1)NC2=C(C=C(C=C2)S(=O)(=O)NC(=O)C3=CC=C(C=C3)N4CCC(CC4)[C@H](C5=CC=CC=C5C6=CC=C(C=C6)Cl)O)S(=O)(=O)C(F)(F)F)CCO [AZD4320] (first compound max 10 µM, 7x7, partner max 1 µM)	-0.062
CC1(C)CCC(CN2CCN(c3ccc(C(=O)NS(=O)(=O)c4ccc(NCC5CCOCC5)c([N+](=O)[O-])c4)c(Oc4cnc5[nH]ccc5c4)c3)CC2)=C(c2ccc(Cl)cc2)C1 [Venetoclax] + Cn1cnc2c(F)c(Nc3ccc(Br)cc3Cl)c(C(=O)NOCCO)cc21 [Selumetinib] (first compound max 1 µM, 7x7, partner max 3 µM)	-0.0188

----------
- System: KYAE-1 (Esophageal Adenocarcinoma)
- protocolDetails: combination Emax (second highest fraction inhibited in the dose matrix, 72 h); higher = more inhibition; extreme values may be limits of the assay
measuredEndpoint: combination Emax

compound	measuredEndpoint	result
NC1(C(=O)N[C@@H](CCO)c2ccc(Cl)cc2)CCN(c2ncnc3[nH]ccc23)CC1 [Capivasertib] + COc1nnc2ccc(N3CCC(c4ccc(OCCN5CCN(C)C(=O)[C@H]5C)cc4)CC3)nn12 [AZD5153] (first compound max 10 µM, 7x7, partner max 1 µM)	combination Emax	0.223
Cc1cc2ncnn2cc1Nc1ncc2c(n1)n(C1CCOCC1)c(=O)n2C [AZD7648] + COc1cc([C@@H]2c3cc4c(cc3[C@@H](O[C@@H]3O[C@@H]5CO[C@@H](C)O[C@H]5[C@H](O)[C@H]3O)[C@H]3COC(=O)[C@H]23)OCO4)cc(OC)c1O [Etoposide] (first compound max 10 µM, 7x7, partner max 10 µM)	combination Emax	0.547
CS(=O)(=O)CCNCc1ccc(-c2ccc3ncnc(Nc4ccc(OCc5cccc(F)c5)c(Cl)c4)c3c2)o1 [Lapatinib] + Cn1cnc2c(F)c(Nc3ccc(Br)cc3Cl)c(C(=O)NOCCO)cc21 [Selumetinib] (first compound max 10 µM, 7x7, partner max 10 µM)	combination Emax	0.83

----------
- Test system: OV-56 (Ovarian Carcinoma)
- protocolDetails: combination Emax (second highest fraction inhibited in the dose matrix, 72 h); higher = more inhibition; extreme values may be limits of the assay
Listed here are molecules together with their documented combination Emax.
measuredEndpoint: combination Emax

molecule	testTarget	result
CN(CCO)CC[C@H](CSc1ccccc1)Nc1ccc(S(=O)(=O)NC(=O)c2ccc(N3CCC([C@@H](O)c4ccccc4-c4ccc(Cl)cc4)CC3)cc2)cc1S(=O)(=O)C(F)(F)F [AZD4320] + CCN(CCO)CCCOc1ccc2c(Nc3cc(CC(=O)Nc4cccc(F)c4)[nH]n3)ncnc2c1 [AZD2811] (first compound max 1 µM, 7x7, partner max 1 µM)	OV-56 (Ovarian Carcinoma)	0.117
COc1nnc2ccc(N3CCC(c4ccc(OCCN5CCN(C)C(=O)[C@H]5C)cc4)CC3)nn12 [AZD5153] + Cc1c2c(nn1C)CSCc1cc(n(C)n1)CSc1cc(c3ccccc3c1)OCCCc1c(C(=O)O)n(C)c3c-2c(Cl)ccc13 [AZD5991] (first compound max 1 µM, 7x7, partner max 1 µM)	OV-56 (Ovarian Carcinoma)	0.351
CN(C)CCCOc1ccc(-c2ccc3ncc4c(c3c2)n(C2CCOCC2)c(=O)n4C)cn1 [AZD0156] + C[C@@H]1COCCN1C2=NC(=NC(=C2)C3(CC3)[S@](=N)(=O)C)C4=C5C=CNC5=NC=C4 [AZD6738] (first compound max 1 µM, 7x7, partner max 10 µM)	OV-56 (Ovarian Carcinoma)	0.741
C=CCn1c(=O)c2cnc(Nc3ccc(N4CCN(C)CC4)cc3)nc2n1-c1cccc(C(C)(C)O)n1 [AZD1775] + O=C(c1cc(Cc2n[nH]c(=O)c3ccccc23)ccc1F)N1CCN(C(=O)C2CC2)CC1 [Olaparib] (first compound max 1 µM, partner max 10 µM)	OV-56 (Ovarian Carcinoma)	0.261
Cc1cc2ncnn2cc1Nc1ncc2c(n1)n(C1CCOCC1)c(=O)n2C [AZD7648] + CN(C)CCCOc1ccc(-c2ccc3ncc4c(c3c2)n(C2CCOCC2)c(=O)n4C)cn1 [AZD0156] (first compound max 10 µM, 7x7, partner max 1 µM)	OV-56 (Ovarian Carcinoma)	0.224
NC1(C(=O)N[C@@H](CCO)c2ccc(Cl)cc2)CCN(c2ncnc3[nH]ccc23)CC1 [Capivasertib] + CCN(CCO)CCCOc1ccc2c(Nc3cc(CC(=O)Nc4cccc(F)c4)[nH]n3)ncnc2c1 [AZD2811] (first compound max 10 µM, 7x7, partner max 1 µM)	OV-56 (Ovarian Carcinoma)	0.249
Cc1c2c(nn1C)CSCc1cc(n(C)n1)CSc1cc(c3ccccc3c1)OCCCc1c(C(=O)O)n(C)c3c-2c(Cl)ccc13 [AZD5991] + CC1(C)CCC(CN2CCN(c3ccc(C(=O)NS(=O)(=O)c4ccc(NCC5CCOCC5)c([N+](=O)[O-])c4)c(Oc4cnc5[nH]ccc5c4)c3)CC2)=C(c2ccc(Cl)cc2)C1 [Venetoclax] (first compound max 1 µM, 7x7, partner max 1 µM)	OV-56 (Ovarian Carcinoma)	0.173

----------
Listed here are compounds together with their documented combination Emax.
- Tested on: LNZTA3WT4 (Low Grade Glioma)
- protocolDetails: combination Emax (second highest fraction inhibited in the dose matrix, 72 h); higher = more inhibition; extreme values may be limits of the assay
measuredEndpoint: combination Emax

compound	result
Cc1cc2ncnn2cc1Nc1ncc2c(n1)n(C1CCOCC1)c(=O)n2C [AZD7648] + CCN(CCO)CCCOc1ccc2c(Nc3cc(CC(=O)Nc4cccc(F)c4)[nH]n3)ncnc2c1 [AZD2811] (first compound max 10 µM, 7x7, partner max 1 µM)	0.266
O=C(c1cc(Cc2n[nH]c(=O)c3ccccc23)ccc1F)N1CCN(C(=O)C2CC2)CC1 [Olaparib] + Cc1c2c(nn1C)CSCc1cc(n(C)n1)CSc1cc(c3ccccc3c1)OCCCc1c(C(=O)O)n(C)c3c-2c(Cl)ccc13 [AZD5991] (first compound max 10 µM, 7x7, partner max 1 µM)	0.123
Cc1c2c(nn1C)CSCc1cc(n(C)n1)CSc1cc(c3ccccc3c1)OCCCc1c(C(=O)O)n(C)c3c-2c(Cl)ccc13 [AZD5991] + C1CN(CCC1(C(=O)N[C@@H](CCO)C2=CC=C(C=C2)Cl)N)C3=NC=NC4=C3C=CN4 [Capivasertib] (first compound max 1 µM, 7x7, partner max 3 µM)	0.237
CN(C)CCCOc1ccc(-c2ccc3ncc4c(c3c2)n(C2CCOCC2)c(=O)n4C)cn1 [AZD0156] + C=CCn1c(=O)c2cnc(Nc3ccc(N4CCN(C)CC4)cc3)nc2n1-c1cccc(C(C)(C)O)n1 [AZD1775] (first compound max 1 µM, partner max 1 µM)	0.783
Cn1cnc2c(F)c(Nc3ccc(Br)cc3Cl)c(C(=O)NOCCO)cc21 [Selumetinib] + C[C@@H]1COCCN1C2=NC(=NC(=C2)C3(CC3)[S@](=N)(=O)C)C4=C5C=CNC5=NC=C4 [AZD6738] (first compound max 10 µM, 7x7, partner max 10 µM)	0.712
CCN(CCO)CCCOc1ccc2c(Nc3cc(CC(=O)Nc4cccc(F)c4)[nH]n3)ncnc2c1 [AZD2811] + C=CCn1c(=O)c2cnc(Nc3ccc(N4CCN(C)CC4)cc3)nc2n1-c1cccc(C(C)(C)O)n1 [AZD1775] (first compound max 1 µM, partner max 1 µM)	0.792
CN(CCO)CC[C@H](CSc1ccccc1)Nc1ccc(S(=O)(=O)NC(=O)c2ccc(N3CCC([C@@H](O)c4ccccc4-c4ccc(Cl)cc4)CC3)cc2)cc1S(=O)(=O)C(F)(F)F [AZD4320] + Cn1cnc2c(F)c(Nc3ccc(Br)cc3Cl)c(C(=O)NOCCO)cc21 [Selumetinib] (first compound max 1 µM, 7x7, partner max 3 µM)	0.329
Cc1cc2ncnn2cc1Nc1ncc2c(n1)n(C1CCOCC1)c(=O)n2C [AZD7648] + C=CCn1c(=O)c2cnc(Nc3ccc(N4CCN(C)CC4)cc3)nc2n1-c1cccc(C(C)(C)O)n1 [AZD1775] (first compound max 10 µM, partner max 1 µM)	0.717
